- test-method-notes: Microsomal stability assay in human liver microsomes
- Type: in vitro ADME
- conditions: remaining compound after 30-min incubation in HLM
measurement-kind: HLM % Parent (%)

# compound, measured-result
measured = [
    ("O=C(c1ccccc1)N1CC2C3C=CC(C4CC34)C2C1 (stereo not drawn)", 85),
    ("CC(C)(C)C(=O)N1CC2C3C=CC(C4CC34)C2C1 (stereo not drawn)", 60),
    ("N#Cc1ccc(N2CCN(c3ccc(C(=O)N4CC5C6C=CC(C7CC67)C5C4)cn3)CC2)cc1 (stereo not drawn)", 13),
    ("Nc1c(Cl)cc(C(=O)N2CC3C4C=CC(C5CC45)C3C2)cc1Cl (stereo not drawn)", 13),
    ("O=C(C1CC=CCC1)N1CC2C3C=CC(C4CC34)C2C1 (stereo not drawn)", 44),
    ("O=C(C1CCCCC1)N1CC2C3C=CC(C4CC34)C2C1 (stereo not drawn)", 27),
]

---

- test-target: human 11β-HSD1 (Homo sapiens)
- Construct: The assay uses human liver microsomes (HLM), where the enzyme is expressed; tissue Celsis In-vitro Technologies; host or cells: mixed sex human liver microsomes
- Sequence (P28845 whole entry): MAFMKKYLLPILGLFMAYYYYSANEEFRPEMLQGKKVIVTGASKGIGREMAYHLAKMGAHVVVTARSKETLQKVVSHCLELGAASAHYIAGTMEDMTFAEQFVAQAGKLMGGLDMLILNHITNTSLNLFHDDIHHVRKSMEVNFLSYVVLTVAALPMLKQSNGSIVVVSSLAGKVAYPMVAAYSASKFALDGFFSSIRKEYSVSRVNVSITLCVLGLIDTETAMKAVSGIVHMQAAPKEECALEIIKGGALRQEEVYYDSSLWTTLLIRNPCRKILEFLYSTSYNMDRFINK
- test-method-notes: Cellular 11β-HSD1 enzyme inhibition assay (HEK293 stably transfected, cortisol by LC/MS)
- Assay type: cell-based
- conditions: HEK293 transfected with human 11β-HSD1, read-out: HEK hHSD1 % inh at 10 µM
measurement-kind: inhibition at 10 µM

# compound, test-target, measured-result
measured = [
    ("CC(C)(C)C(=O)N1CC2C3C=CC(C4CC34)C2C1 (stereo not drawn) [Compound 6]", "human 11β-HSD1 (Homo sapiens)", "41%"),
    ("Nc1c(Cl)cc(C(=O)N2CC3C4C=CC(C5CC45)C3C2)cc1Cl (stereo not drawn) [Compound 8]", "human 11β-HSD1 (Homo sapiens)", "100%"),
    ("O=C(C1CC=CCC1)N1CC2C3C=CC(C4CC34)C2C1 (stereo not drawn) [Compound 9]", "human 11β-HSD1 (Homo sapiens)", "100%"),
    ("O=C(c1ccccc1)N1CC2C3C=CC(C4CC34)C2C1 (stereo not drawn) [Compound 4]", "human 11β-HSD1 (Homo sapiens)", "77%"),
    ("N#Cc1ccc(N2CCN(c3ccc(C(=O)N4CC5C6C=CC(C7CC67)C5C4)cn3)CC2)cc1 (stereo not drawn) [Compound 16]", "human 11β-HSD1 (Homo sapiens)", "100%"),
    ("O=C(C1CCCCC1)N1CC2C3C=CC(C4CC34)C2C1 (stereo not drawn) [Compound 2]", "human 11β-HSD1 (Homo sapiens)", "100%"),
]

---

measurement-kind: melting point

# compound, measured-result
measured = [
    ("O=C(c1ccc(Cl)nc1)N1CC2C3C=CC(C4CC34)C2C1 (stereo not shown) [Compound 10]", "101 to 102 °C"),
    ("CN1CCC(C(=O)N2CC3C4C=CC(C5CC45)C3C2)CC1 (stereo not shown) [Compound 12]", "100 to 101 °C"),
    ("O=C(c1ccnc(Cl)c1)N1CC2C3C=CC(C4CC34)C2C1 (stereo not shown) [Compound 11]", "135 to 136 °C"),
    ("Nc1c(Cl)cc(C(=O)N2CC3C4C=CC(C5CC45)C3C2)cc1Cl (stereo not shown) [Compound 8]", "186 to 187 °C"),
]

---

- test-target: human 11β-HSD1 (Homo sapiens)
- Construct: The assay uses human liver microsomes (HLM), where the enzyme is expressed; tissue Celsis In-vitro Technologies; host or cells: mixed sex human liver microsomes
- test-method-notes: 11β-HSD1 enzyme inhibition assay in human liver microsomes (3H-cortisone to 3H-cortisol, SPA)
- Format: biochemical
- conditions: human liver microsomes; read-out: hHSD1 IC50
measurement-kind: IC50 (nM)

# compound, measured-result
records = [
    ("O=C(c1ccccc1)N1CC2C3C=CC(C4CC34)C2C1 (centres unmarked) [Compound 4]", 546),
    ("O=C(c1ccc(N2CCN(c3ccc(C(F)(F)F)cc3)CC2)nc1)N1CC2C3C=CC(C4CC34)C2C1 (centres unmarked) [Compound 15]", 11600),
    ("O=C(C1CC=CCC1)N1CC2C3C=CC(C4CC34)C2C1 (centres unmarked) [Compound 9]", 56),
    ("N#Cc1ccc(N2CCN(c3ccc(C(=O)N4CC5C6C=CC(C7CC67)C5C4)cn3)CC2)cc1 (centres unmarked) [Compound 16]", 377),
    ("Nc1c(Cl)cc(C(=O)N2CC3C4C=CC(C5CC45)C3C2)cc1Cl (centres unmarked) [Compound 8]", 45),
    ("CC(C)(C)C(=O)N1CC2C3C=CC(C4CC34)C2C1 (centres unmarked) [Compound 6]", 666),
    ("O=C(C1CCCCC1)N1CC2C3C=CC(C4CC34)C2C1 (centres unmarked) [Compound 2]", 19),
    ("O=C(c1ccc(N2CCN(c3ccccc3)CC2)nc1)N1CC2C3C=CC(C4CC34)C2C1 (centres unmarked) [Compound 14]", 5440),
]

---

- test-target: human 11β-HSD2 (Homo sapiens, UniProt P80365)
- Construct: stably transfected with the full-length gene coding for human 11β-HSD2; expressed in transfected cells; host or cells: HEK293
- Sequence (P80365 whole entry): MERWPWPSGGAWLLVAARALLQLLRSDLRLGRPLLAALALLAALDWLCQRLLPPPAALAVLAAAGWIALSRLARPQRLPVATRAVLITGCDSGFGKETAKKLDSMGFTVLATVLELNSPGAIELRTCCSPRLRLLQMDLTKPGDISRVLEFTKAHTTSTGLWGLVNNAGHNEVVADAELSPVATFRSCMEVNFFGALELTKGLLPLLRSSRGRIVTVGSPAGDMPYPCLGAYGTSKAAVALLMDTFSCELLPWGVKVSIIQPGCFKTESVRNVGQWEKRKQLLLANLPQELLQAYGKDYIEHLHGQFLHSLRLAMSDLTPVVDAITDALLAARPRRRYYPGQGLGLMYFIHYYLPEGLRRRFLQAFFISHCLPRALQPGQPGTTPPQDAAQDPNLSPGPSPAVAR
- test-method-notes: Cellular 11β-HSD2 enzyme inhibition assay (HEK293 stably transfected)
- Format: cell-based
- conditions: HEK293, 10 µM, HEK293 transfected with human 11β-HSD2; read-out: HEK hHSD2 % inh at 10 µM
- Description: Selectivity over 11β-HSD2 was also assessed in a cell-based assay using the same methodology as before (HEK293 stably transfected with the 11β-HSD2 gene). […] Finally, metabolic stability was determined using HLM, which are widely used to predict the degree of primary metabolic clearance in the liver. Each compound was incubated over 30 min with HLM and the percentage of remaining compound after this incubation period was determined by calculating compound concentration after and before by LC/MS. […]
measurement-kind: inhibition at 10 µM (%)

# molecule, output-unit, measured-result
data = [
    ("O=C(C1CC=CCC1)N1CC2C3C=CC(C4CC34)C2C1 (stereo not drawn)", "%", 87),
    ("O=C(c1ccccc1)N1CC2C3C=CC(C4CC34)C2C1 (stereo not drawn)", "%", 84),
    ("N#Cc1ccc(N2CCN(c3ccc(C(=O)N4CC5C6C=CC(C7CC67)C5C4)cn3)CC2)cc1 (stereo not drawn)", "%", 54),
    ("Nc1c(Cl)cc(C(=O)N2CC3C4C=CC(C5CC45)C3C2)cc1Cl (stereo not drawn)", "%", 86),
    ("O=C(C1CCCCC1)N1CC2C3C=CC(C4CC34)C2C1 (stereo not drawn)", "%", 69),
    ("CC(C)(C)C(=O)N1CC2C3C=CC(C4CC34)C2C1 (stereo not drawn)", "%", 71),
]
